Answer each item with its documented IgE concentration detected.
system under test: T1, cynomolgus monkey IgE (in cynomolgus serum, Harlan Sera-Lab Ltd) (cynomolgus monkey)
T1 construct: Serum was the source of IgE; eight serum samples; also called cynomolgus IgE; Cyno 1 to Cyno 8 serum samples
test description: capture ELISA, Test 1, Cyno 2
Put your answer as a value accompanied by its unit after it.

IN: Item under review: 6.605.1 Hc-H3Q, M13K, D82E Lc-T25A, T53S (antibody, human IgG2, kappa, V domains shown, Human IgG2 kappa; leader omitted; also called 6.605.1 (H3Q, M13K, D82E-T25A, T53S); 6.605.1 QKE/AS) VH: QVQLVQSGAEVKKPGASVKVSCKASGYTFTSYGISWVRQAPGQGLEWMGWISAYNGNTNYAQKLQGRITMTTDTSTSTAYMELRSLRSDDTAVYYCARDGDYYDPFDYWGQGTLVTVSS VL: DIQMTQSPSSLSASVGDRVTITCRASQSISNWLNWYQQKPGKAPKLLIYGASSLKSGVPSRFSGSESGTDFTLTISSLQPEDFATYYCQQSYSTPPTFGQGTKVEIKR . Reported IgE concentration detected?
OUT: 103 ng/mL

IN: What value of IgE concentration detected has been reported for the following binder? 5.396.1 Hc-S103N Lc-K61R (antibody, human IgG2, kappa, V domains shown, Human IgG2 kappa; leader omitted; also called 5.396.1 (S103N/K61R); 5.396.1 S103N/K61R) VH: QVQLQQWGAGLLKPSETLSLTCAVYGGSFSGYYWSWIRQPPGKGLEWIGEIHHSGSTNYNPSLKSRVTISVDTSKNQFSLKLSSVTAADTAVYYCARDNWNDNFYYYYGMDVWGQGTTVTVSS VL: DIQMTQSPSSLSASVGDRVTITCRASQGISNHLAWFQQKPGKAPKSLIYAASSLQSGVPSRFSGSGSGTDFTLTISSLQPEDFATYYCQQYNRHPFTFGPGTKVDIKR
OUT: 0 ng/mL

IN: # query: IgE concentration detected of entry 5.396.1 (recombinant) (antibody, human IgG2, kappa, V domains shown, Fully human IgG2 kappa, expressed in 293 Freestyle cells; also called recombinant 5.396.1) VH: QVQLQQWGAGLLKPSETLSLTCAVYGGSFSGYYWSWIRQPPGKGLEWIGEIHHSGSTNYNPSLKSRVTISVDTSKNQFSLKLSSVTAADTAVYYCARDNWNDSFYYYYGMDVWGQGTTVTVSS VL: DIQMTQSPSSLSASVGDRVTITCRASQGISNHLAWFQQKPGKAPKSLIYAASSLQSGVPSKFSGSGSGTDFTLTISSLQPEDFATYYCQQYNRHPFTFGPGTKVDIKR
OUT: 0 ng/mL

IN: Endpoint output: IgE concentration detected of 6.605.1 (recombinant) (antibody, human IgG2, kappa, V domains shown, Human IgG2 kappa; leader omitted; also called recombinant 6.605.1) VH: QVHLVQSGAEVKMPGASVKVSCKASGYTFTSYGISWVRQAPGQGLEWMGWISAYNGNTNYAQKLQGRITMTTDTSTSTAYMDLRSLRSDDTAVYYCARDGDYYDPFDYWGQGTLVTVSS VL: DIQMTQSPSSLSASVGDRVTITCRTSQSISNWLNWYQQKPGKAPKLLIYGASTLKSGVPSRFSGSESGTDFTLTISSLQPEDFATYYCQQSYSTPPTFGQGTKVEIKR . Value?
OUT: 91 ng/mL
